test system: SK-N-MM (SKNMM-MYCN, doxycycline-inducible MYCN); experiment: area under dose-response curve (CellTiter-Glo viability normalised to plate controls) (AUC (arbitrary units)); higher = more loss of viability; extreme values may be limits of the assay; details: MYCN induction (doxycycline): no doxycycline (MYCN not induced); time after drugging: 8 days
MEASUREMENT NAME: area under dose-response curve

{"columns": ["COMPOUND", "STUDY TARGET", "MEASUREMENT NAME", "MEASUREMENT"],
 "data": [
  ["OCCN1CCN(CCCN2c3ccccc3Sc3ccc(C(F)(F)F)cc32)CC1", "SK-N-MM (SKNMM-MYCN, doxycycline-inducible MYCN)", "area under dose-response curve", 0],
  ["CNC(=O)c1ccc(N2C(=S)N(c3ccc(C#N)c(C(F)(F)F)c3)C(=O)C2(C)C)cc1F [ENZALUTAMIDE]", "SK-N-MM (SKNMM-MYCN, doxycycline-inducible MYCN)", "area under dose-response curve", 0],
  ["Cc1ccc(Nc2nccc(N(C)c3ccc4c(C)n(C)nc4c3)n2)cc1S(N)(=O)=O", "SK-N-MM (SKNMM-MYCN, doxycycline-inducible MYCN)", "area under dose-response curve", 29.2],
  ["CN(C)C1CCN(C(=O)c2ccc(NC(=O)Nc3ccc(-c4nc(N5CCOCC5)nc(N5CCOCC5)n4)cc3)cc2)CC1", "SK-N-MM (SKNMM-MYCN, doxycycline-inducible MYCN)", "area under dose-response curve", 47.7]
]}
